Tested on: wild-type (alpha strain, SARS-CoV-2, USA-WA1/2020) SARS-CoV-2
Assay: Inhibition of SARS-CoV-2 mediated cell death, wild type (dose response)
Format: cell-based
Conditions: wild-type (alpha strain, USA-WA1/2020); read-out: IC50 Values For inhibition of SARS-CoV-2 Mediated Cell Death, Wild Type
measured_quantity: pIC50
Keep in mind that pIC50 stands for -log10 of concentration in molar terms.

Qu. Please state recorded pIC50 (tested on wild-type (alpha strain, SARS-CoV-2, USA-WA1/2020) SARS-CoV-2) of Cc1ccc(S(=O)(=O)N[C@@H](Cc2c[nH]c3ccccc23)C(=O)NC2CCC2=O)cc1 (stereo partly shown) [Compound 4]
Ans. 4.89

====

Test system: wild-type (alpha strain, SARS-CoV-2, USA-WA1/2020) SARS-CoV-2
Test: Inhibition of SARS-CoV-2 mediated cell death, wild type (dose response)
Assay type: cell-based
Conditions: Severe acute respiratory syndrome coronavirus 2, wild-type (alpha strain, USA-WA1/2020); read-out: IC50 Values For inhibition of SARS-CoV-2 Mediated Cell Death, Wild Type
measured_quantity: pIC50
// pIC50: -log10(molar conc.)

compound	pIC50
O=C(N[C@H](Cc1ccccc1)C(=O)NC1CCC1=O)OCc1ccccc1 (stereo partly shown) [Compound 2]	5.16
CC(C)[C@H](NC(=O)OCc1ccccc1)C(=O)NC1CCC1=O (stereo partly shown) [Compound 3]	4.88
Cc1ccc(S(=O)(=O)N[C@@H](Cc2ccccc2)C(=O)NC2CCC2=O)cc1 (stereo partly shown) [Compound 1]	4.81

Qu. API: value(readout= pIC50, system= wild-type (alpha strain, SARS-CoV-2, USA-WA1/2020) SARS-CoV-2, query= Cc1ccc(S(=O)(=O)N[C@@H](Cc2ccccc2)C(=O)NCC(C)(C)O)cc1 [Compound 10] )
Ans. 5.18

====

Tested on: wild-type (alpha strain, SARS-CoV-2, USA-WA1/2020) SARS-CoV-2
Test: Inhibition of SARS-CoV-2 mediated cell death, wild type (dose response)
Format: cell-based
Conditions: Severe acute respiratory syndrome coronavirus 2, read-out: IC50 Values For inhibition of SARS-CoV-2 Mediated Cell Death, Wild Type, wild-type (alpha strain, USA-WA1/2020)
measured_quantity: IC50 (µM)
Write the answer as a number in µM, unit excluded.

Qu. Item under review: Cc1ccc(S(=O)(=O)N[C@@H](Cc2c[nH]c3ccccc23)C(=O)NC2CCC2=O)cc1 (stereo partly shown) [Compound 4] . Reported IC50?
Ans. 6.7

====

Test system: SARS-CoV-2
Assay: Cell survival following SARS-CoV-2 challenge
Assay type: cell-based
Conditions: 5 µM inhibitor concentration
Rule: Cell Survival following SARS-CoV-2 Challenge under 30 gives condition not met, otherwise condition met.

Qu. Cell Survival following SARS-CoV-2 Challenge >= 30 for O=C(N[C@@H](Cc1ccc(O)cc1)C(=O)NC1CCC1=O)OCc1ccccc1 (some centres unmarked) ?
Ans. condition not met

Qu. Same question for Cc1ccc(S(=O)(=O)N[C@@H](Cc2ccccc2)C(=O)NC2CCC2=O)cc1 (some centres unmarked) please.
Ans. condition met

Qu. Another compound to look at: Cc1ccc(S(=O)(=O)N[C@H](Cc2ccccc2)C(=O)NC2CCC2=O)cc1 (some centres unmarked)
Ans. condition not met

Qu. Then this compound: O=C(N[C@H](Cc1ccccc1)C(=O)NC1CCC1=O)OCc1ccccc1 (some centres unmarked)
Ans. condition not met

====

Tested on: SARS-CoV-2
Assay: Cell survival following SARS-CoV-2 challenge
Type: cell-based
Conditions: 5 µM inhibitor concentration
measured_quantity: Cell Survival following SARS-CoV-2 Challenge
No unit in the answer, only the number.

Below, 3 compounds whose answers are already recorded.
compound	test_target	experimental_result
Cc1ccc(S(=O)(=O)N[C@@H](Cc2ccccc2)C(=O)NCC(C)(C)O)cc1	SARS-CoV-2	36.7
Cc1ccc(S(=O)(=O)N[C@@H](Cc2c[nH]c3ccccc23)C(=O)NC2CCC2=O)cc1 (stereo partly shown)	SARS-CoV-2	54.3
CC(C)[C@H](NC(=O)OCc1ccccc1)C(=O)NC1CCC1=O (stereo partly shown)	SARS-CoV-2	37.9

Consider now this further compound.
Qu. Dear colleague, I am looking for the recorded Cell Survival following SARS-CoV-2 Challenge of the following compound: O=C(N[C@@H](Cc1ccccc1)C(=O)NC1CCC1=O)OCc1ccccc1 (stereo partly shown)
Ans. 41.6

The measurements presented in this section are drawn from paper PMC10049026.
